test system: EfPiwi piRISC loaded with L1MC piRNA (26 nt); assay: pre-steady-state target cleavage rate (min^-1); auxiliary factor: 500 nM Ephydatia muelleri Gtsf1; guide: L1MC piRNA 5'p-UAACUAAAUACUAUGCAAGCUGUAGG; higher = faster piRNA-guided slicing of the target
Quick rule for you: pre-steady-state target cleavage rate at 0.006 or higher means 1 (yes), lower means 0 (no).

- UCCUCCUUGAGCUUGCAUAGUAUUUAGUUA: 1 (yes)
- UCCUGCUUCAGCUUGCAUAGUAUUUAGAUA: 0 (no)
- UCCUGGUACAGCUUGCUUAGUAUUUAGUAA: 0 (no)
- UCCUGGAUGUGCUUGCAUAGUAUAUUAGUUA: 0 (no)
- UCCUGGAUGUCGAACGUAUCUAUUUAGAAA [g4:g10:cont:t1A]: 0 (no)
- UCCUGGAUGUCGAACGUAUCUAUUUAUGUUA: 0 (no)
- UCCUGGAUGUGCUGCAUAGUAUUUAGUUA: 0 (no)
- UCCUGCUACAGCUUUGCAUAGUAUUUAGUUA: 1 (yes)
- UCCUGGUACACCUUGCAUAGUAUUAAGUUA: 0 (no)
- UCCUGGAUCUGCUUCCAUAGUAUUUAGUUA: 0 (no)
- UCCUGCUACAGGUUGCAUAGUAUUUAGUAA: 0 (no)
- UCCUGCAACAGCUUGCAUAGUAUUUAGAAA: 0 (no)
- UCCUGCCUACAGCUUGCAUAGUAUUUAGUUA: 1 (yes)
- UCCUGGAUGAGCUUGCAUAGUAUUUAAUUA: 0 (no)
- UCCUGCAACAGCUUCCAUAGUAUUUAGUUA: 0 (no)
- UCCUGGAACACCUUGCAUAGUAUAUAGUUA: 0 (no)
- UCCUCCUACAGCUUGCAAGUAUUUAGUUA: 1 (yes)
- UCCUCCUACAGGUUCCAUAGUAUUUAGUUA: 0 (no)
- UCCUGGAUGUCGAACGUUACUAUUUAGUUA: 0 (no)
- UCCUGGAACAGCUUGCAUACUAUUUUGUUA: 0 (no)
- UCCUGGAUGUGCUUGCAUAGUACUUUAGUUA: 1 (yes)
- UCCUGCUACAGCUUGUCAUAGUAUUUAGUUA: 1 (yes)
- UCCUGGAUCUGCUUGCAUAGUAUUUAGAUA: 0 (no)
- UCCUGGUACAGCUAGCAUAGUAUUAAGUUA: 0 (no)
- UCCUCCAACAGCAUGCAUAGUAUUUAGUUA: 1 (yes)
- UCCUCGUACAGCUUGCAUAGUAUUUAGAAA: 1 (yes)

====

test system: EfPiwi piRISC loaded with piRNA #1 (26 nt); assay: pre-steady-state target cleavage rate (min^-1); auxiliary factor: 500 nM Ephydatia muelleri Gtsf1; guide: piRNA #1 5'p-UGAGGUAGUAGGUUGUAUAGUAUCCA; MIWI and MILI are mouse PIWI proteins and EfPiwi is from a freshwater sponge; tags in brackets are library labels; higher = faster piRNA-guided slicing of the target
Reported pre-steady-state target cleavage rate values follow for various sequences
assayReadout: pre-steady-state target cleavage rate

* GGAGACCAUACUAUACUACGUACUACCUCA | 0.00415
* GGAGUGGAUACUAUAUCAACCUACUACCUCA | 0.0851
* GGAGAGGAUACUAUACUAGCUACUACCUCA | 0.00387
* GGAGACCUAACUAUACAACCUACUAGCUCA | 0.00459
* GGAGACCAUACUAUACAACCUACAACCUCA | 0.00489
* GGAGACCUUACUAUACAACUUACUACCUCA | 0.00902
* GGAGACCUAUCUAUACAUCCUAGUACCUCA | 0.00398

Reference for the values: the supplement of paper PMC10338343
